Every entry's value here was drawn from the OPERA property sets (Mansouri et al. 2018).

Listed next: entries and their corresponding log10 Henry constant (atm·m³/mol).

COMPOUND	log10 Henry constant (atm·m³/mol)
COc1cccc(OC)c1O	-6.64
ClC1=C(Cl)[C@]2(Cl)[C@@H]3[C@@H]4C[C@@H]([C@H]5O[C@@H]45)[C@@H]3[C@@]1(Cl)C2(Cl)Cl (single isomer, unassigned)	-5.09
Clc1ccccc1Cl	-2.72
Clc1ccc(Cl)c(-c2cc(Cl)ccc2Cl)c1	-3.7
CCCCCC(=O)OC	-3.44
Clc1ccccc1-c1c(Cl)cccc1Cl	-3.64
CCCCS	-2.34
Clc1cc(Cl)c(-c2ccc(Cl)c(Cl)c2Cl)cc1Cl	-4.68
Nc1ccc2ccccc2c1	-7.09
CCC(C)CO (centres undefined)	-4.85
O=S1OCC2C(CO1)C1(Cl)C(Cl)=C(Cl)C2(Cl)C1(Cl)Cl (centres undefined)	-4.62
Clc1cccc(Cl)c1	-2.58
ClCCl	-2.49
Clc1ccc(Cl)c(-c2ccc(Cl)c(Cl)c2Cl)c1	-4.13

---

COMPOUND	melting point (°C)
C=Cc1cc(C)ccc1C	-35
CCCC(=O)O[C@]1(C(=O)CCl)[C@@H](C)C[C@H]2[C@@H]3CCC4=CC(=O)C=C[C@]4(C)[C@@]3(F)C(=O)C[C@@]21C	95
CC[N+]1(C)CCCC(OC(=O)C(O)(c2ccccc2)c2ccccc2)C1.[Br-] (configuration not stated)	180
Oc1ccc(Cl)cc1O	90.5
C/C=C/C=C/C	-79
C/N=C(\NC)NCc1ccccc1	196
O=C(O)C1CCC1	-2

---

SMILES STRING	melting point [°C]
CCNc1nc(Cl)nc(NCC(=O)OCC)n1	228
C1CNCCNC1	43.5
C=C(C)C(=O)OCCCCOC(=O)C(=C)C	226
CN(C)C(O)=Nc1ccc(-n2nc(C(C)(C)C)oc2=O)c(Cl)c1	193
Cc1ccc(C=O)cc1	-6
CCCCCCCC(=O)O	16.3
CCCC(C)(C)C(C)C	-117
O=C1c2ccccc2Cc2ccccc21	155

---

Bucketed by reported melting point, buckets being bin A: < 20 °C; bin B: ≥ 20 °C and < 100 °C; bin C: ≥ 100 °C

COMPOUND	ASSIGNED CLASS
CCc1ccccc1O	bin A
CC(C)(C)c1cc(C=O)cc(C(C)(C)C)c1O	bin C
c1ncncn1	bin B
Cc1cc(=O)nc(C(C)C)[nH]1	bin C
O=C(O)C(O)C(Cl)(Cl)Cl (stereo not given)	bin C
Clc1ccc2cccc(Cl)c2c1	bin B
COc1ccc(C(C)=O)cc1OC	bin B
Cc1ccc(N)c(Cl)c1	bin A
Cc1ccc(C)cc1	bin A
C=CC(C)(C)O	bin A
COCC(=NOCC(=O)OC)c1cc(Oc2ccc(C(F)(F)F)cc2Cl)ccc1[N+](=O)[O-]	bin B
O=C(O)Cc1sc(-c2ccccc2)nc1-c1ccc(Cl)cc1	bin C
Cc1cc(C(C)C)ccc1O	bin A
CCCNC(=O)COC(=O)c1ccccc1	bin B

---

REPORTED METRIC: boiling point (°C)

MOLECULE	REPORTED METRIC	NUMERIC RESULT
Cc1cc(Cl)c(Cl)c(Cl)c1	boiling point	246
CC1CCCS1 (stereo not drawn)	boiling point	134
CCCCC(C)(CC)CC	boiling point	164
CC(C)(C)CN	boiling point	82
CC(=O)COc1ccccc1	boiling point	230
CCCOP(=O)(OCCC)OCCC	boiling point	252
Clc1cccc(Cl)c1Cl	boiling point	218
O=C(Oc1ccccc1)c1ccccc1	boiling point	314
C=COCCOCCOC=C	boiling point	198
C=C(C)CCC(C)=O	boiling point	150
CC(=O)OCCBr	boiling point	162
CCCCCCCCCCCCCCCCS	boiling point	334
CCCCCCCC(=O)OCCCC	boiling point	240
C#CCCO	boiling point	129
CC1=CCC(C(=O)O)C1(C)C (stereo not drawn)	boiling point	242
Cn1ccc2ccccc21	boiling point	237
CN1CCCC1=O	boiling point	202
COc1ccc(C(=O)c2ccccc2)cc1	boiling point	355
